# System under test: human Src enzyme (Homo sapiens, UniProt P12931)
# Construct: purchased Carna Biosciences, Inc. 08-173
# Sequence (P12931 whole entry): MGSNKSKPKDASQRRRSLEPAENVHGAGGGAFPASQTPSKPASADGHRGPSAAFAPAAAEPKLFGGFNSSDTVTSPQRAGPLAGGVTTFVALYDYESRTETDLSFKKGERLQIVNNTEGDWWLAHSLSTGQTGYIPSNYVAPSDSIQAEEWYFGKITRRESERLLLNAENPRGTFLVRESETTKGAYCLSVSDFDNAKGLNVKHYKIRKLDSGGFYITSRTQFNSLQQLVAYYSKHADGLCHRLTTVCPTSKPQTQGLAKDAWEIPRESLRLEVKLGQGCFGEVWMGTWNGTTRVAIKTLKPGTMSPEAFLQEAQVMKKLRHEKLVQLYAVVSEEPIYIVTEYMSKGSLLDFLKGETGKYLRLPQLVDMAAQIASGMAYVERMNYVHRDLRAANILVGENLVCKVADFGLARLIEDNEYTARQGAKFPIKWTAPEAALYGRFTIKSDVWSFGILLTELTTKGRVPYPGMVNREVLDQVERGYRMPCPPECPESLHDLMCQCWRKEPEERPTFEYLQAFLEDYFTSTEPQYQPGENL
# Test method notes: Src enzyme inhibitory activity (time-resolved fluorometry, biotinylated peptide phosphorylation)
# Assay type: biochemical
# Assay conditions: read-out: SRC_IC50
Measurement name: log10 of IC50 (log10 of the value in nM)
The base-10 logarithm of IC50, taken with IC50 in nM, is what appears here.

Given Cc1cc(Oc2c(F)cccc2F)ncc1-n1ncc(C(=O)c2cc3cc(OCC(F)F)c(C4CCN(C(=O)OC(C)(C)C)CC4)cc3[nH]2)c1N [Example 5-1-069] , state its recorded log10 of IC50.
1.52

Form field: reported log10 of IC50 of Cc1cc(Oc2c(F)cccc2F)ncc1-n1ncc(C(=O)c2cc3cc(OCC(F)F)c(NS(=O)(=O)c4cccc(C#N)c4)cc3[nH]2)c1N [Example 5-1-382]
2.41

Entry COc1cc2cc(C(=O)c3cnn(-c4cnc(Oc5c(F)cccc5F)cc4C)c3N)[nH]c2cc1NS(=O)(=O)CC(=O)N1CCOCC1 [Example 5-1-143] : reported log10 of IC50 = ?
1.18

Looking for the measured log10 of IC50 of Cc1cc2cc(C(=O)c3cnn(-c4cc(C)c(Oc5ccccc5F)cc4C)c3N)[nH]c2cc1NS(C)(=O)=O [Example 5-1-200] , can you help?
2.96

Look at this compound and give its reported log10 of IC50. Cc1cc(Oc2ccccc2F)ncc1-n1ncc(C(=O)c2cc3cc(F)c(NS(=O)(=O)CC(=O)NC(C)C)cc3[nH]2)c1N [Example 5-1-056]
1.88

Value lookup for log10 of IC50; key = Cc1cc(Oc2ccccc2F)ncc1-n1ncc(C(=O)c2cc3cc(F)c(N4C(=O)NC(C)(C)C4=O)cc3[nH]2)c1N [Example 5-1-379]
1.79

Record request: log10 of IC50 value, item Cc1cc2cc(C(=O)c3cnn(-c4ccc(Oc5ccccc5F)c(C)c4F)c3N)[nH]c2cc1NS(C)(=O)=O [Example 5-1-207]
2.54

Form field: reported log10 of IC50 of Cc1cc(Oc2ccccc2F)ccc1-n1ncc(C(=O)c2cc3cc(OCC(F)F)c(Br)cc3[nH]2)c1N [Example 5-1-070]
1.11

Which log10 of IC50 is listed for Cc1cc(Oc2ccccc2F)ncc1-n1ncc(C(=O)c2cc3cc(OCC(F)F)c(N4C(=O)NC(C)(C)C4=O)cc3[nH]2)c1N [Example 5-1-377] ?
1.23

Requested read-out: log10 of IC50. Entry: Cc1cc(-n2ncc(C(=O)c3cc4cc(N5CCOCC5)c(N5CCOC5=O)cc4[nH]3)c2N)ccc1Oc1ccccc1F [Example 5-1-160]
2.36

Which value of log10 of IC50 has been reported for Cc1cc(-n2ncc(C(=O)c3cc4cc(OC5CCN(C(C)C)CC5)c(N5CCN(S(C)(=O)=O)CC5)cc4[nH]3)c2N)ccc1Oc1ccccc1F [Example 5-1-176] in the records?
1.90

# input compound: Cc1cc(Oc2ccccc2F)ccc1-n1ncc(C(=O)c2cc3cc(N4CCOCC4)c(N4CCOC4=O)cc3[nH]2)c1N [Example 5-1-106] ; wanted: its log10 of IC50
0.30

Look at this compound and give its reported log10 of IC50. CC(=O)N1CCC(c2cc3[nH]c(C(=O)c4cnn(-c5cnc(Oc6ccccc6F)cc5C)c4N)cc3cc2C)CC1 [Example 5-1-133]
0.79
